Overview of recorded solubility at 24 h for various compounds
Test: physchem
Conditions: water, thermodynamic from solid
value_kind: solubility at 24 h (µg/mL)

smi: Cc1nc2n(c(=O)c1CCN1CCC(c3noc4cc(F)ccc34)CC1)CCCC2
value_kind: solubility at 24 h
modifier_sign: =
result_number: 60

smi: Nc1nc(Nc2ccc(S(N)(=O)=O)cc2)nn1C(=O)c1c(F)cccc1F
value_kind: solubility at 24 h
modifier_sign: =
result_number: 15

smi: COc1ccc2c(c1)c(CC(=O)O)c(C)n2C(=O)c1ccc(Cl)cc1
value_kind: solubility at 24 h
modifier_sign: =
result_number: 10

smi: C[C@@H]1[C@H](O)[C@@H](C)/C=C/C=C/C=C/C=C/C=C/C=C/C=C/[C@H](O[C@@H]2O[C@H](C)[C@@H](O)[C@H](N)[C@@H]2O)C[C@@H]2O[C@](O)(C[C@@H](O)C[C@@H](O)[C@H](O)CC[C@@H](O)C[C@@H](O)CC(=O)O[C@H]1C)C[C@H](O)[C@H]2C(=O)O
value_kind: solubility at 24 h
modifier_sign: =
result_number: 0.1

smi: Cc1cc2c(cc1-c1cc(/C=C3\SC(=O)NC3=O)ccc1OC(F)(F)F)C(C)(C)CCC2(C)C
value_kind: solubility at 24 h
modifier_sign: <
result_number: 0.5
